// provenance: patent US8609708B2

- assay_target: CYP2C9 relative to CYP2A6 (Homo sapiens (Human), UniProt P11712)
- Sequence (P11712 whole entry): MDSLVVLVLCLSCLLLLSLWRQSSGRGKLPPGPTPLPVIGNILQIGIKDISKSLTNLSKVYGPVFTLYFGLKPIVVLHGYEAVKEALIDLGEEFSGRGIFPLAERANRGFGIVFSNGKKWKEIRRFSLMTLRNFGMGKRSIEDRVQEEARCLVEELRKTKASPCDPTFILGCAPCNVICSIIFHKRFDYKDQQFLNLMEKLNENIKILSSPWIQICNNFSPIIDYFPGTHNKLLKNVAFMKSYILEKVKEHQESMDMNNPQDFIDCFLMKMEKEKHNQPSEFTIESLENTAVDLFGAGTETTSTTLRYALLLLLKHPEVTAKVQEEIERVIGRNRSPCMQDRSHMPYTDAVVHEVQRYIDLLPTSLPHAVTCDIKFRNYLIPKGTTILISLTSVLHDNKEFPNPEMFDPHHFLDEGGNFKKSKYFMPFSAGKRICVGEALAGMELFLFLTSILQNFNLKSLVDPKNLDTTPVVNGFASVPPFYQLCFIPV
- experiment_summary: CYP2C9 Vivid blue substrate O-dealkylation inhibition
- Format: biochemical
- particulars: human, pH 8, 2C9/2A6 selectivity ratio (IC50 CYPX/IC50 CYP2A6)
readout_name: selectivity ratio at 40 min

>  <molecule>
NCc1ccc(-c2cccnc2)o1 [Compound 39a, (5-(Pyridin-3-yl)furan-2-yl)methanamine]

>  <readout_name>
selectivity ratio at 40 min

>  <result>
41

$$$$

###

- assay_target: CYP2C9 relative to CYP2A6 (Homo sapiens (Human))
- experiment_summary: CYP2C9 Vivid blue substrate O-dealkylation inhibition
- Assay type: biochemical
- particulars: human, recombinant CYP2C9 BACULOSOMES, pH 8, probe Vivid blue substrate (10 μM), O-dealkylation; read-out: 2C9/2A6 selectivity ratio (IC50 CYPX/IC50 CYP2A6)
The following compounds are listed with their measured selectivity ratio at 40 min values.

>  <line_notation>
CNCc1ccc(-c2cccnc2)o1

>  <selectivity ratio at 40 min>
48

$$$$
>  <line_notation>
Cn1cnc(-c2cccnc2)c1

>  <selectivity ratio at 40 min>
106

$$$$
>  <line_notation>
CN(C)Cc1ccc(-c2cccnc2)s1

>  <selectivity ratio at 40 min>
1.5

$$$$

###

The following compounds are listed with their measured pIC50 values.
- assay_target: UniProt P11509
- experiment_summary: CYP2A6 mediated coumarin 7-hydroxylation inhibition
- particulars: read-out: CYP2A6 IC50
pIC50: −log10 of the molar value.

>  <compound>
c1cncc(-c2cncnc2)c1

>  <bound_sign>
=

>  <pIC50>
3.78

$$$$
>  <compound>
Cc1ccsc1C#Cc1cccnc1

>  <bound_sign>
=

>  <pIC50>
4.69

$$$$
>  <compound>
c1cncc(-c2ccnc(-c3cccnc3)c2)c1 [Compound 95, Nicotelline, reference compound]

>  <bound_sign>
≤

>  <pIC50>
3.40

$$$$
>  <compound>
O=C1CC[C@@H](c2cccnc2)N1 [Compound 84, Norcotinine, reference compound]

>  <bound_sign>
=

>  <pIC50>
3.56

$$$$

###

- assay_target: CYP2D6 (Homo sapiens (Human), UniProt P10635)
- Sequence (P10635 whole entry): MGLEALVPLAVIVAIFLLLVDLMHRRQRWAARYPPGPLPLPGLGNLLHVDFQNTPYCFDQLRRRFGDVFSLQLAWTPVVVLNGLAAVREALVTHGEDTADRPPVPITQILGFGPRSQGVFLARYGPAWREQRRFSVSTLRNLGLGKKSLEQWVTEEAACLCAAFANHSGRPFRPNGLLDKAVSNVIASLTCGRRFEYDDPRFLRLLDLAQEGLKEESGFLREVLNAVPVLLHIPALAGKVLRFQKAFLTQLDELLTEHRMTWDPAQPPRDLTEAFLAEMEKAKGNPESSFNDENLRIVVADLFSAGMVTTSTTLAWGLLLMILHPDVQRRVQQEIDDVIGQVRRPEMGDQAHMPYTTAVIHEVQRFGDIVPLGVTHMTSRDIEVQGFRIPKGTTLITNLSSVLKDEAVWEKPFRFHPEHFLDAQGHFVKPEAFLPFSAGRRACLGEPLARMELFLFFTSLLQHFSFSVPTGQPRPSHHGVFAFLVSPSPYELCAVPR
- experiment_summary: CYP2D6 Vivid blue substrate O-dealkylation inhibition
- Type: biochemical
- particulars: insect cell microsomes expressing CYP2D6, 0.2M potassium phosphate buffer; mean of at least 3 determinations ± SD; read-out: IC50 ± SD 2D6
pIC50: −log10 of the molar value.
# binarize pIC50: threshold 4 inclusive, high side true, low side false

>  <compound>
Nc1ccc(-c2cccnc2)s1

>  <assay_target>
CYP2D6 (Homo sapiens (Human), UniProt P10635)

>  <assigned_label>
true

$$$$
>  <compound>
Cc1cscc1-c1ccc(F)nc1

>  <assay_target>
CYP2D6 (Homo sapiens (Human), UniProt P10635)

>  <assigned_label>
false

$$$$
>  <compound>
c1ccc(Cn2cnc(-c3cccnc3)c2)cc1

>  <assay_target>
CYP2D6 (Homo sapiens (Human), UniProt P10635)

>  <assigned_label>
true

$$$$
>  <compound>
ON=Cc1ccc(-c2cccnc2)o1 [Compound 37b]

>  <assay_target>
CYP2D6 (Homo sapiens (Human), UniProt P10635)

>  <assigned_label>
false

$$$$
>  <compound>
NCc1ccc(-c2cccnc2)o1 [Compound 39a, (5-(Pyridin-3-yl)furan-2-yl)methanamine]

>  <assay_target>
CYP2D6 (Homo sapiens (Human), UniProt P10635)

>  <assigned_label>
true

$$$$
>  <compound>
c1cncc(-c2ccc(CNCc3ccc(-c4cccnc4)s3)s2)c1 [Compound 38b]

>  <assay_target>
CYP2D6 (Homo sapiens (Human), UniProt P10635)

>  <assigned_label>
true

$$$$
>  <compound>
c1cncc(-c2cccnc2)c1

>  <assay_target>
CYP2D6 (Homo sapiens (Human), UniProt P10635)

>  <assigned_label>
false

$$$$
>  <compound>
ON=Cc1ccc(-c2cccnc2)o1 [Compound 37a]

>  <assay_target>
CYP2D6 (Homo sapiens (Human), UniProt P10635)

>  <assigned_label>
false

$$$$
>  <compound>
NCc1ccc(-c2cccnc2)s1 [Compound 38a]

>  <assay_target>
CYP2D6 (Homo sapiens (Human), UniProt P10635)

>  <assigned_label>
false

$$$$
>  <compound>
Cc1cscc1-c1cccnc1

>  <assay_target>
CYP2D6 (Homo sapiens (Human), UniProt P10635)

>  <assigned_label>
false

$$$$

###

- assay_target: CYP3A4 relative to CYP2A6 (Homo sapiens (Human), UniProt P08684)
- Sequence (P08684 whole entry): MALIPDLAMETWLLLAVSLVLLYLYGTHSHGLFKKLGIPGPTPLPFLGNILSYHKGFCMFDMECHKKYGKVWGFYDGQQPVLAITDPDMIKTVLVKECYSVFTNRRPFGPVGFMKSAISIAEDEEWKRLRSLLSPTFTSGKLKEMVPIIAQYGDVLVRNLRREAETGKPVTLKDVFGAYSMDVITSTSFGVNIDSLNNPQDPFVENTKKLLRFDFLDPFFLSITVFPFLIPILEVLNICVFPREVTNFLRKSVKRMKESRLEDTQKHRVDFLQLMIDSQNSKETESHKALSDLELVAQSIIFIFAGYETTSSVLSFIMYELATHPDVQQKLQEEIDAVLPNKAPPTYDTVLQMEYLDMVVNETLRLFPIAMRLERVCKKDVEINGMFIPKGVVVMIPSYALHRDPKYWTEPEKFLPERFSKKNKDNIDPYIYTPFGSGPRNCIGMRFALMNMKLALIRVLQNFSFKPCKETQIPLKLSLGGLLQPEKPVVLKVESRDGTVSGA
- experiment_summary: in vitro
- particulars: human, pH 7.5
The following molecules are listed with their measured selectivity ratio at 30 min values.

>  <molecule>
Cn1cnc(-c2cccnc2)c1

>  <bound_sign>
=

>  <selectivity ratio at 30 min>
349

$$$$
>  <molecule>
NCc1ccc(-c2cccnc2)o1 [Compound 39a, (5-(Pyridin-3-yl)furan-2-yl)methanamine]

>  <bound_sign>
=

>  <selectivity ratio at 30 min>
174

$$$$
>  <molecule>
c1ccc(Cn2cnc(-c3cccnc3)c2)cc1

>  <bound_sign>
>

>  <selectivity ratio at 30 min>
54

$$$$
>  <molecule>
CNCc1ccc(-c2cccnc2)o1

>  <bound_sign>
>

>  <selectivity ratio at 30 min>
250

$$$$
>  <molecule>
NCc1ccc(-c2cccnc2)o1 [Compound 2]

>  <bound_sign>
=

>  <selectivity ratio at 30 min>
174

$$$$
>  <molecule>
CN(C)Cc1ccc(-c2cccnc2)s1

>  <bound_sign>
=

>  <selectivity ratio at 30 min>
1.6

$$$$
>  <molecule>
c1cncc(-c2ccc(CNCc3ccc(-c4cccnc4)s3)s2)c1 [Compound 38b]

>  <bound_sign>
>

>  <selectivity ratio at 30 min>
54

$$$$
>  <molecule>
CC(=O)c1ccc(-c2cccnc2)s1

>  <bound_sign>
=

>  <selectivity ratio at 30 min>
3

$$$$

###

- assay_target: CYP3A4 relative to CYP2A6 (Homo sapiens (Human), UniProt P08684)
- experiment_summary: in vitro
- particulars: human, pH 7.5, Selectivity Ratio: IC50 (Inhibition of CYP3A4)/IC50 (Inhibition of CYP2A6), Table 1

>  <compound>
Cc1ccc(-c2cccnc2)nc1 [Compound 46]

>  <selectivity ratio>
5

$$$$

###

- assay_target: human CYP2A6 (Homo sapiens (Human))
- Sequence (P11509 whole entry): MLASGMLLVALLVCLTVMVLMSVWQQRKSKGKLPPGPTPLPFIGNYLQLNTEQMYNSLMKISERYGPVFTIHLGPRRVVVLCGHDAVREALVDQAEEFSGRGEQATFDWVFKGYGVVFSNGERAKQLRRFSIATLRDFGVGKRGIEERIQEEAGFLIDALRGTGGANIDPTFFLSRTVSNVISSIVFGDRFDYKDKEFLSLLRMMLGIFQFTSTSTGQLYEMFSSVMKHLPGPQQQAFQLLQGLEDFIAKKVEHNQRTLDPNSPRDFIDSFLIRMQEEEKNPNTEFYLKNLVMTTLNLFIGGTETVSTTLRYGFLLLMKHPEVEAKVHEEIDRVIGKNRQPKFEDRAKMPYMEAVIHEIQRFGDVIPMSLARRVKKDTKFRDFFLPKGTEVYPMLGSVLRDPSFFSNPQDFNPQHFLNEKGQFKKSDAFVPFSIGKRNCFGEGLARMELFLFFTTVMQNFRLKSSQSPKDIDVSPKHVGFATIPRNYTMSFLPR
So basically, if IC50 comes in under 2 µM it's y, and if it's 2 µM or more it's n.

>  <compound>
Cc1cccc(-c2cccnc2)n1 [Compound 28, 2-Methyl-6-(pyridin-3-yl)pyridine]

>  <assigned_label>
n

$$$$
>  <compound>
Cc1csc(-c2cccnc2)n1 [Compound 26]

>  <assigned_label>
n

$$$$
>  <compound>
Cn1cnc(-c2cccnc2)c1 [Compound 5]

>  <assigned_label>
y

$$$$
>  <compound>
c1cncc(-c2cccnc2)c1 [Compound 30]

>  <assigned_label>
n

$$$$
>  <compound>
c1cncc(-c2c[nH]cn2)c1 [Compound 34, 3-(1H-Imidazol-4-yl)pyridine]

>  <assigned_label>
y

$$$$
>  <compound>
CNCC#Cc1cccnc1 [Compound 26]

>  <assigned_label>
n

$$$$
>  <compound>
NCc1ccc(-c2cccnc2)o1 [Compound 2a]

>  <assigned_label>
y

$$$$
>  <compound>
Cc1cscc1-c1cccnc1 [Compound 20, 3-(4-Methylthiophen-3-yl)pyridine]

>  <assigned_label>
y

$$$$
>  <compound>
Cc1cscc1-c1ccc(F)nc1 [Compound 21]

>  <assigned_label>
y

$$$$

###

- assay_target: CYP2D6 (Homo sapiens (Human), UniProt P10635)
- experiment_summary: CYP2D6 Vivid blue substrate O-dealkylation inhibition
- Assay type: biochemical
- particulars: read-out: IC50 ± SD 2D6; insect cell microsomes expressing CYP2D6, 0.2M potassium phosphate buffer; mean of at least 3 determinations ± SD

>  <molecule>
NCC1CCC(c2cccnc2)O1 (racemic) [Compound 38]

>  <IC50 [µM]>
197

$$$$

###

The following compounds are listed with their measured selectivity ratio at 40 min values.
- assay_target: CYP2C19 relative to CYP2A6 (Homo sapiens (Human), UniProt P33261)
- Sequence (P33261 whole entry): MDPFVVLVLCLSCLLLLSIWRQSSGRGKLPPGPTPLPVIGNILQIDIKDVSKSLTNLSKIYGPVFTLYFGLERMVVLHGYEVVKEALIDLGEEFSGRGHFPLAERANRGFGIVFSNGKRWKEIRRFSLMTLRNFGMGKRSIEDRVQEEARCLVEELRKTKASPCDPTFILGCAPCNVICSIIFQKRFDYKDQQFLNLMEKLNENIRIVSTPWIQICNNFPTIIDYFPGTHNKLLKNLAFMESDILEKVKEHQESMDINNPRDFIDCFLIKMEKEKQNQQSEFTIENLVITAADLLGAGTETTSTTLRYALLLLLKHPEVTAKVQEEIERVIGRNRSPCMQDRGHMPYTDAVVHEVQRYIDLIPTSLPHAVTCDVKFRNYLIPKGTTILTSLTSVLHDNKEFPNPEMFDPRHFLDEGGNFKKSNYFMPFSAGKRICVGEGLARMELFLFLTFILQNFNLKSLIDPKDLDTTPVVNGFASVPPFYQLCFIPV
- experiment_summary: CYP2C19 Vivid blue substrate O-dealkylation inhibition
- Assay type: biochemical
- particulars: human, recombinant CYP2C19 BACULOSOMES, pH 8, probe Vivid blue substrate (10 μM), O-dealkylation; read-out: 2C19/2A6 selectivity ratio (IC50 CYPX/IC50 CYP2A6)

>  <compound>
CNCc1ccc(-c2cccnc2)o1

>  <assay_target>
CYP2C19 relative to CYP2A6 (Homo sapiens (Human), UniProt P33261)

>  <selectivity ratio at 40 min>
19

$$$$
>  <compound>
Cn1cnc(-c2cccnc2)c1

>  <assay_target>
CYP2C19 relative to CYP2A6 (Homo sapiens (Human), UniProt P33261)

>  <selectivity ratio at 40 min>
163

$$$$
>  <compound>
c1cncc(-c2ccc(CNCc3ccc(-c4cccnc4)s3)s2)c1 [Compound 38b]

>  <assay_target>
CYP2C19 relative to CYP2A6 (Homo sapiens (Human), UniProt P33261)

>  <selectivity ratio at 40 min>
0.03

$$$$
>  <compound>
CN(C)Cc1ccc(-c2cccnc2)s1

>  <assay_target>
CYP2C19 relative to CYP2A6 (Homo sapiens (Human), UniProt P33261)

>  <selectivity ratio at 40 min>
0.8

$$$$
